test system: BT-549 breast; assay: NCI-60 one-dose screen, 48 h (100 = growth as untreated, 0 = no growth, -100 = all killed); conditions: 10 µM unless noted
The panel holds about 83,000 compounds, 20% with a hit somewhere; the sample as a whole holds those more often. The source made the active and inactive calls. The calls were made as follows: active = growth percent below 10; inactive = the rest.
Reported growth values for the following compounds.

{"CHEMICAL_SMILES": "O=C1C(N2CCN(c3ccccc3)CC2)=C(Cl)C(=O)c2ncccc21", "growth": "97.3% (inactive)"}
{"CHEMICAL_SMILES": "CN1CCC[C@]2(C)[C@H]3CC[C@@H]4[C@@H]5[C@H]6OC[C@@]5(CCC6(C)C)CC[C@@]4(C)[C@]3(C)CC[C@H]2C1(C)C", "growth": "96.8% (inactive)"}
{"CHEMICAL_SMILES": "CCNC(=O)Oc1ccc(/C(=C(/C)c2ccc(Cl)cc2)c2ccc(OCCN3CCCCCC3)cc2)cc1", "growth": "77.5% (inactive)"}
{"CHEMICAL_SMILES": "N#Cc1c(-c2cccs2)cc(-c2cnccn2)nc1SCC(=O)N/N=C/c1cccs1", "growth": "42.5% (inactive)"}
